Tested on: 782815-120-R-J1-PDC complex spheroid viability;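 further: spheroids exposed to compounds for 7 days before reading; 100% = DMSO vehicle control viability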
Measurement Description: Anticancer human tumor 782815-120-R-J1-PDC patient-derived colon adenocarcinoma cell line growth inhibition [RAS]
Particulars: second compound 0.000949 µM; first compound 0.00316 µM; stronger effect = lower value
Measured Property: viability, T/C (%)
Note: unit % is implicit; provide only the numeric part.

I would be grateful if you could share the reported viability, T/C for CC(C)n1nc(-c2ccc3oc(N)nc3c2)c2c(N)ncnc21 + CCn1c(-c2cc(N3CCN(C)CC3)cnc2C(C)OC)c2c3cc(ccc31)-c1csc(n1)CC(NC(=O)C1CC1C)C(=O)N1CCCC(N1)C(=O)OCC(C)(C)C2 . 70.3

Given C=CC(=O)Nc1cc(Nc2nccc(-c3cn(C)c4ccccc34)n2)c(OC)cc1N(C)CCN(C)C + CCn1c(-c2cc(N3CCN(C)CC3)cnc2C(C)OC)c2c3cc(ccc31)-c1csc(n1)CC(NC(=O)C1CC1C)C(=O)N1CCCC(N1)C(=O)OCC(C)(C)C2 , state its recorded viability, T/C. 71.5

# viability, T/C lookup, item Nc1ccn(C2OC(CO)C(O)C2(F)F)c(=O)n1 (configuration not stated) + CCn1c(-c2cccnc2C(C)OC)c2c3cc(ccc31)N1CCOC(CC(NC(=O)C(C(C)C)N(C)C(=O)C3(F)CCN(C(=O)C#CC(C)(C)N(C)C)CC3)C(=O)N3CCCC(N3)C(=O)OCC(C)(C)C2)C1 89.4

// returns reported viability, T/C for input Nc1ccn(C2OC(CO)C(O)C2(F)F)c(=O)n1 (configuration not stated) + CCn1c(-c2cc(N3CCN(C)CC3)cnc2C(C)OC)c2c3cc(ccc31)-c1csc(n1)CC(NC(=O)C1CC1C)C(=O)N1CCCC(N1)C(=O)OCC(C)(C)C2 74

Looking for the measured viability, T/C of C=CC(=O)N1CCN(c2nc(OCC3CCCN3C)nc3c(F)c(-c4nc(N)cc(C)c4C(F)(F)F)c(Cl)cc23)C(C)C1 (configuration not stated) + CCn1c(-c2cc(N3CCN(C)CC3)cnc2C(C)OC)c2c3cc(ccc31)-c1csc(n1)CC(NC(=O)C1CC1C)C(=O)N1CCCC(N1)C(=O)OCC(C)(C)C2 , can you help? 82.5

Record request: viability, T/C value, item C=CC(=O)N1CCN(c2nc(OCC3CCCN3C)nc3c(F)c(-c4nc(N)cc(C)c4C(F)(F)F)c(Cl)cc23)C(C)C1 (configuration not stated) + CCn1c(-c2cccnc2C(C)OC)c2c3cc(ccc31)N1CCOC(CC(NC(=O)C(C(C)C)N(C)C(=O)C3(F)CCN(C(=O)C#CC(C)(C)N(C)C)CC3)C(=O)N3CCCC(N3)C(=O)OCC(C)(C)C2)C1 95.1

Param item = O=C(c1ccc(F)c(F)c1Nc1ccc(I)cc1F)N1CC(O)([C@@H]2CCCCN2)C1 + CCn1c(-c2cccnc2C(C)OC)c2c3cc(ccc31)N1CCOC(CC(NC(=O)C(C(C)C)N(C)C(=O)C3(F)CCN(C(=O)C#CC(C)(C)N(C)C)CC3)C(=O)N3CCCC(N3)C(=O)OCC(C)(C)C2)C1 ; retrieve measured viability, T/C. 91.2

Need viability, T/C, item C=CC(=O)Nc1cc(Nc2nccc(-c3cn(C)c4ccccc34)n2)c(OC)cc1N(C)CCN(C)C + CCn1c(-c2cccnc2C(C)OC)c2c3cc(ccc31)N1CCOC(CC(NC(=O)C(C(C)C)N(C)C(=O)C3(F)CCN(C(=O)C#CC(C)(C)N(C)C)CC3)C(=O)N3CCCC(N3)C(=O)OCC(C)(C)C2)C1 102

// returns reported viability, T/C for input O=C(c1ccc(F)c(F)c1Nc1ccc(I)cc1F)N1CC(O)([C@@H]2CCCCN2)C1 + CCn1c(-c2cc(N3CCN(C)CC3)cnc2C(C)OC)c2c3cc(ccc31)-c1csc(n1)CC(NC(=O)C1CC1C)C(=O)N1CCCC(N1)C(=O)OCC(C)(C)C2 75.1

// lookup viability, T/C for CCN1CCN(Cc2ccc(Nc3ncc(F)c(-c4cc(F)c5nc(C)n(C(C)C)c5c4)n3)nc2)CC1 + CCn1c(-c2cccnc2C(C)OC)c2c3cc(ccc31)N1CCOC(CC(NC(=O)C(C(C)C)N(C)C(=O)C3(F)CCN(C(=O)C#CC(C)(C)N(C)C)CC3)C(=O)N3CCCC(N3)C(=O)OCC(C)(C)C2)C1 104

// viability, T/C lookup, key: CCN1CCN(Cc2ccc(Nc3ncc(F)c(-c4cc(F)c5nc(C)n(C(C)C)c5c4)n3)nc2)CC1 + CCn1c(-c2cc(N3CCN(C)CC3)cnc2C(C)OC)c2c3cc(ccc31)-c1csc(n1)CC(NC(=O)C1CC1C)C(=O)N1CCCC(N1)C(=O)OCC(C)(C)C2 75.8

Report viability, T/C for CC(C)n1nc(-c2ccc3oc(N)nc3c2)c2c(N)ncnc21 + CCn1c(-c2cccnc2C(C)OC)c2c3cc(ccc31)N1CCOC(CC(NC(=O)C(C(C)C)N(C)C(=O)C3(F)CCN(C(=O)C#CC(C)(C)N(C)C)CC3)C(=O)N3CCCC(N3)C(=O)OCC(C)(C)C2)C1 please. 93
